Please go through the items and note down their Emax at 10 µM.
- Test system: HDAC4/5 (MEF2 reporter gene)
- TEST METHOD NOTES: HDAC subtype reporter gene assay, MEF-binding element (MEF2) luciferase in HeLa cells
- Format: cell-based
- ASSAY CONDITIONS: Homo sapiens, M-HeLa, read-out: % of SAHA Response for HDAC4/5 at 10 μM (MEF2 reporter gene), 24 hours
Numeric only. Scale: %

Lab book: Emax at 10 µM of "Cc1[nH]c(/C=N/N=C2\C(=O)Nc3ccc(F)cc32)c(C)c1C(=O)NCCCCCC(=O)Nc1ccc(F)cc1N" noted as 35

Lab book: Emax at 10 µM of "O=C(CCCCCCCNC(=O)c1cccc(/C=C2\C(=O)Nc3ccc(F)cc32)c1)NO" noted as 62

Lab book: Emax at 10 µM of "Nc1cc(F)ccc1NC(=O)CCCCCNC(=O)c1ccc(/C=C2\C(=O)Nc3ccc(F)cc32)cc1" noted as 56

Lab book: Emax at 10 µM of "Nc1ccccc1NC(=O)CCCCCCCNC(=O)c1cccc(/C=C2\C(=O)Nc3ccc(F)cc32)c1" noted as 53

Lab book: Emax at 10 µM of "O=C(CCCCCNC(=O)c1ccc(/C=C2\C(=O)Nc3ccc(F)cc32)cc1)NO" noted as 21
